molecular target: T1, recombinant human 4R0N tau (human, UniProt P10636 2-758); assay: SPR Biacore T200; antibody captured by anti-human Fc; tau as analyte; global 1:1 fit
T1 construct: also called recombinant 4R0N human tau; P10636-6
T1 sequence (P10636 other isoform, or with tags, fused parts or gaps limits assumed): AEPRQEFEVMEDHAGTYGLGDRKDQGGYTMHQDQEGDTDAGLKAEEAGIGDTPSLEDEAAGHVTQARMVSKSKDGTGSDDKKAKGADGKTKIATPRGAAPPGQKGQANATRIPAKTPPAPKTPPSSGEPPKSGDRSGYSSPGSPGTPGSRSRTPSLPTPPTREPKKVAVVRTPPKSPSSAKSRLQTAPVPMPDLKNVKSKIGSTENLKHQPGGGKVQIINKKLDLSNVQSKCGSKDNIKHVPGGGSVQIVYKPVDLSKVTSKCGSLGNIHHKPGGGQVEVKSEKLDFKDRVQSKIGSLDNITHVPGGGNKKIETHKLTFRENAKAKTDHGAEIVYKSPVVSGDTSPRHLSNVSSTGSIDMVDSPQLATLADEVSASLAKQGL
# Kd per entry
Please reply with the bare figure in nM and do not write the unit itself.

Sample answers from the record:
BINDER	READOUT_LABEL	MEASURED_RESULT
hu9F5VHv9/hu9F5VLv8_DIM14 (antibody, V domains shown) VH: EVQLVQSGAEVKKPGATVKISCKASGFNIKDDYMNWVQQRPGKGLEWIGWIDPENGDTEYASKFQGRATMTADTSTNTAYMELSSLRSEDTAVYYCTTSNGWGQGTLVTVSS VL: DIQMTQSPFSLPVTPGESASISCRSSKSLGHSNGITYLYWYGQKPGQSPQLLIYQGSNTASGVPNRFSSSGSGTDFTLKISRVEAEDVGVYYCAQNIELPLTFGQGTKLEIK	Kd	0.142
hu9F5VHv9/hu9F5VLv8_DIM10 (antibody, V domains shown) VH: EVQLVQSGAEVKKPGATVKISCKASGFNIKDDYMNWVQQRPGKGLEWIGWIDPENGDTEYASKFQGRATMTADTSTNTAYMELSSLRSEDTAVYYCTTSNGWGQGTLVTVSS VL: DIQMTQSPFSLPVTPGESASISCRSSKSLSHSNGITYLYWYQQKPGQSPQLLIYQKSNGASGVPNRFSSSGSGTDFTLKISRVEAEDVGVYYCAQNIELPLTFGQGTKLEIK	Kd	3.92

Could you share which Kd value was measured for hu9F5VHv9/hu9F5VLv8_DIM25 (antibody, V domains shown) VH: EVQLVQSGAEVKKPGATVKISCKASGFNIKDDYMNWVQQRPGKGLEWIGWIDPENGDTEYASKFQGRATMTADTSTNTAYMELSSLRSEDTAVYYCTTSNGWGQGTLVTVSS VL: DIQMTQSPFSLPVTPGESASISCRSSKSLGHSNGITYLYWYIQKPGQSPQLLIYQESNRASGVPNRFSSSGSGTDFTLKISRVEAEDVGVYYCAQNGELPLTFGQGTKLEIK ?
3.15
